TARGET_UNDER_TEST: Bruton's Tyrosine Kinase (Btk) (Homo sapiens, UniProt Q06187)
Construct: 5-10 nM Btk enzyme (His-tagged, full-length); His tag
Sequence (Q06187 whole entry): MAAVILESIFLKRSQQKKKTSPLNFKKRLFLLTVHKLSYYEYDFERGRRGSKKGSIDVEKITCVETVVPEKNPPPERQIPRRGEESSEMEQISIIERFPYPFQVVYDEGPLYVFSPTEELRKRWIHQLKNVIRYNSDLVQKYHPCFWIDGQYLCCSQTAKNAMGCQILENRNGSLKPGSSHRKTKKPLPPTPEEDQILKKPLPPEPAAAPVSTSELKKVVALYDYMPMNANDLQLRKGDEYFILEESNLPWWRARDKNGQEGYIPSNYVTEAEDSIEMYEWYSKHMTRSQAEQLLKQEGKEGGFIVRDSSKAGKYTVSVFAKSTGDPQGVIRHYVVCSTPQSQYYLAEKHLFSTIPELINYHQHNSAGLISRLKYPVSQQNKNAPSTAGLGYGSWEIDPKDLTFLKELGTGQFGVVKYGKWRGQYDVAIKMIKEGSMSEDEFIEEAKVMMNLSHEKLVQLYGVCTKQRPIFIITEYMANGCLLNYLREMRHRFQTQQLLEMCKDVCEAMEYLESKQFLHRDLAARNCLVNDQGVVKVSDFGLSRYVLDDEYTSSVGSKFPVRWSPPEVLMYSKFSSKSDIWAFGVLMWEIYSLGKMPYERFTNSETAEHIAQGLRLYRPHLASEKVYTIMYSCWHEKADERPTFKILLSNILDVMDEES
TEST_SUMMARY: Determination of IC50 of Bruton's Tyrosine Kinase (Btk) inhibition, 33P filtration assay
Assay type: biochemical
PROTOCOL_CONDITIONS: His-tagged full-length Btk, 100 μM ATP
Response field label takes Met when IC50 is strictly below 10 µM and Not met in all other cases.

>  <COMPOUND>
Cc1cc(Nc2nn(C(C)C)c(=O)c3ccc(N4CCOCC4)cc23)n[nH]1 [Example F-2]

>  <TARGET_UNDER_TEST>
Bruton's Tyrosine Kinase (Btk) (Homo sapiens, UniProt Q06187)

>  <CLASS>
Not met

$$$$
>  <COMPOUND>
Cc1ccc(-n2nc(Nc3cc(C)[nH]n3)c3ccccc3c2=O)cc1 [Example A-6]

>  <TARGET_UNDER_TEST>
Bruton's Tyrosine Kinase (Btk) (Homo sapiens, UniProt Q06187)

>  <CLASS>
Not met

$$$$
>  <COMPOUND>
Cc1cc(Nc2nn(CC(C)C)c(=O)c3ccccc23)n[nH]1 [Example A-4]

>  <TARGET_UNDER_TEST>
Bruton's Tyrosine Kinase (Btk) (Homo sapiens, UniProt Q06187)

>  <CLASS>
Not met

$$$$
>  <COMPOUND>
Cc1cc(Nc2nn(C(C)C)c(=O)c3cc(O)ccc23)n[nH]1 [Example G-6]

>  <TARGET_UNDER_TEST>
Bruton's Tyrosine Kinase (Btk) (Homo sapiens, UniProt Q06187)

>  <CLASS>
Met

$$$$
>  <COMPOUND>
Cc1cc(Nc2nn(C(C)C)c(=O)c3cc(S(C)(=O)=O)ccc23)n[nH]1 [Example H-2]

>  <TARGET_UNDER_TEST>
Bruton's Tyrosine Kinase (Btk) (Homo sapiens, UniProt Q06187)

>  <CLASS>
Met

$$$$
>  <COMPOUND>
Cc1cc(Nc2nn(-c3ccc(C(C)(C)C)cc3)c(=O)c3ccccc23)n[nH]1 [Example A-8]

>  <TARGET_UNDER_TEST>
Bruton's Tyrosine Kinase (Btk) (Homo sapiens, UniProt Q06187)

>  <CLASS>
Not met

$$$$
>  <COMPOUND>
CSc1ccc2c(Nc3cc(C)[nH]n3)nn(C(C)C)c(=O)c2c1 [Example H-1]

>  <TARGET_UNDER_TEST>
Bruton's Tyrosine Kinase (Btk) (Homo sapiens, UniProt Q06187)

>  <CLASS>
Met

$$$$
>  <COMPOUND>
Cc1cc(Nc2nn(Cc3ccccc3)c(=O)c3ccccc23)n[nH]1 [Example E-1]

>  <TARGET_UNDER_TEST>
Bruton's Tyrosine Kinase (Btk) (Homo sapiens, UniProt Q06187)

>  <CLASS>
Not met

$$$$
>  <COMPOUND>
Cc1cc(Nc2nn(C(C)C)c(=O)c3cc(N4CCCCC4)ccc23)n[nH]1 [Example F-10]

>  <TARGET_UNDER_TEST>
Bruton's Tyrosine Kinase (Btk) (Homo sapiens, UniProt Q06187)

>  <CLASS>
Met

$$$$
>  <COMPOUND>
Cc1cc(Nc2nn(C(C)C)c(=O)c3ccc(F)cc23)n[nH]1 [Example E-3]

>  <TARGET_UNDER_TEST>
Bruton's Tyrosine Kinase (Btk) (Homo sapiens, UniProt Q06187)

>  <CLASS>
Not met

$$$$
>  <COMPOUND>
COc1ccc2c(Nc3cc(C)[nH]n3)nn(C(C)C)c(=O)c2c1 [Example G-1]

>  <TARGET_UNDER_TEST>
Bruton's Tyrosine Kinase (Btk) (Homo sapiens, UniProt Q06187)

>  <CLASS>
Met

$$$$
>  <COMPOUND>
Cc1cc(Nc2nn(C(C)C)c(=O)c3ccccc23)n[nH]1 [Example A-23]

>  <TARGET_UNDER_TEST>
Bruton's Tyrosine Kinase (Btk) (Homo sapiens, UniProt Q06187)

>  <CLASS>
Not met

$$$$
>  <COMPOUND>
Cc1cc(Nc2nn(Cc3cc(F)cc(F)c3)c(=O)c3ccccc23)n[nH]1 [Example A-21]

>  <TARGET_UNDER_TEST>
Bruton's Tyrosine Kinase (Btk) (Homo sapiens, UniProt Q06187)

>  <CLASS>
Not met

$$$$
>  <COMPOUND>
Cc1cc(Nc2nn(C(C)C)c(=O)c3cc(N(C)Cc4ccncc4)ccc23)n[nH]1 [Example I-2]

>  <TARGET_UNDER_TEST>
Bruton's Tyrosine Kinase (Btk) (Homo sapiens, UniProt Q06187)

>  <CLASS>
Met

$$$$
>  <COMPOUND>
CC(=O)Nc1ccc2c(Nc3cc(C)[nH]n3)nn(C(C)C)c(=O)c2c1 [Example I-8]

>  <TARGET_UNDER_TEST>
Bruton's Tyrosine Kinase (Btk) (Homo sapiens, UniProt Q06187)

>  <CLASS>
Met

$$$$
>  <COMPOUND>
Cc1cc(Nc2nn(Cc3cccc(C(=O)O)c3)c(=O)c3ccccc23)n[nH]1 [Example A-24]

>  <TARGET_UNDER_TEST>
Bruton's Tyrosine Kinase (Btk) (Homo sapiens, UniProt Q06187)

>  <CLASS>
Met

$$$$
>  <COMPOUND>
Cc1cc(Nc2nn(C(C)C)c(=O)c3cc(F)ccc23)n[nH]1 [Example E-2]

>  <TARGET_UNDER_TEST>
Bruton's Tyrosine Kinase (Btk) (Homo sapiens, UniProt Q06187)

>  <CLASS>
Met

$$$$
>  <COMPOUND>
Cc1cc(Nc2nn(C(C)C)c(=O)c3cc(N4CCN(C)CC4)ccc23)[nH]n1 [Example F-5]

>  <TARGET_UNDER_TEST>
Bruton's Tyrosine Kinase (Btk) (Homo sapiens, UniProt Q06187)

>  <CLASS>
Met

$$$$
>  <COMPOUND>
Cc1cc(Nc2nn(-c3ccc(Cl)cc3)c(=O)c3ccccc23)n[nH]1 [Example B-1]

>  <TARGET_UNDER_TEST>
Bruton's Tyrosine Kinase (Btk) (Homo sapiens, UniProt Q06187)

>  <CLASS>
Met

$$$$
